- Tested on: eNOS promoter
- TEST_PROTOCOL: Activation of eNOS transcription (eNOS promoter-luciferase reporter gene assay)
- Assay type: cell-based
- EXPERIMENTAL_CONDITIONS: human endothelial cell line stably transfected with eNOS promoter-firefly luciferase construct; 18 h incubation; EC50 determined graphically; read-out: EC50 of transcription induction ratio (TIR)
Structures can show the parent of a compound that is named as a salt.
log10 EC50 by entry:
OUTCOME_MEASURE: log10 EC50 (log10 of the value in µM)

INSERT INTO results (molecule, data_value) VALUES
  ('CC[C@H]1C(=O)N(Cc2ccc(C(C)(C)C)cc2)CC2N(CCCn3ccnc3)c3ccc([N+](=O)[O-])cc3C(=O)N21 (some centres unmarked) [Example 38, trifluoroacetic acid salt]', -0.40),
  ('O=C1[C@H](C2CCCCC2)N2C(=O)c3cc(C(F)(F)F)ccc3N(CCCn3ccnc3)C2CN1CCCCc1ccccc1 (some centres unmarked) [Example 13, trifluoroacetic acid salt]', 0.85),
  ('O=C1[C@H](Cc2c[nH]cn2)N2C(=O)c3cc([N+](=O)[O-])ccc3N(Cc3ccc(OC(F)(F)F)cc3)C2CN1CCCCc1ccccc1 (some centres unmarked) [Example 9, trifluoroacetic acid salt]', 0.92),
  ('COc1ccc(C[C@H]2C(=O)N(CCCCc3ccccc3)CC3N(CCCn4ccnc4)c4ccc([N+](=O)[O-])cc4C(=O)N32)cc1OC (some centres unmarked) [Example 6, trifluoroacetic acid salt]', 1.38),
  ('O=C1[C@H](Cc2c[nH]cn2)N2C(=O)c3cc([N+](=O)[O-])ccc3N(CCCCc3ccccc3)C2CN1CCCCc1ccccc1 (some centres unmarked) [Example 8, trifluoroacetic acid salt]', 0.78);
